# assayed_target: Histone deacetylase 1 (Homo sapiens, UniProt Q13547)
# Sequence (Q13547 whole entry): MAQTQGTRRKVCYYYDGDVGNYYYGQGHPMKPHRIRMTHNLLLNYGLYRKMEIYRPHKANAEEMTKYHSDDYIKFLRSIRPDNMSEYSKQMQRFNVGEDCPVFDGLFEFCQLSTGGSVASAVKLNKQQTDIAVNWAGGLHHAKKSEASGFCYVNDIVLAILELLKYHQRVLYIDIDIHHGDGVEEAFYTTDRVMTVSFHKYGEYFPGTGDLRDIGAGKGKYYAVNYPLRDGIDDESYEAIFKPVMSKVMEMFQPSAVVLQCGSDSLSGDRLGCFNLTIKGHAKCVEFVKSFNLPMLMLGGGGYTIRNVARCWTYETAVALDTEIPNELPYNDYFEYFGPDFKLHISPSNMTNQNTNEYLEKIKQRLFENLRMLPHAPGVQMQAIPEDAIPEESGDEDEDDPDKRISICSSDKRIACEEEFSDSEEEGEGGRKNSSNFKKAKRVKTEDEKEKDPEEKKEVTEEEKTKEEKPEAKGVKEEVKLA
This section presents compounds with their documented pIC50 values.
Answer as the number alone; pIC50 is minus log10 of concentration in mol/L.

Previously resolved entries follow.
> print(dat)
                                   compound  measurement.name  recorded.measurement
1  O=C(CCCCCCn1c(C(=O)NC2C3CC4CC(C3)CC2C4)cc2ccc(Br)cc21)NO (centres undefined)             pIC50                  8.50
2  O=C(CCCCCCn1cc(C(=O)NC23CC4CC(CC(C4)C2)C3)c2ccccc21)NO             pIC50                  8.94
3  O=C(CCCCCCn1cc(C(=O)NCc2ccc(Cl)cc2)c2ccccc21)NO             pIC50                  8.64

Assay Histone deacetylase 1 (Homo sapiens, UniProt Q13547), sample O=C(/C=C/c1ccc(Cn2cc(C(=O)NC3C4CC5CC(C4)CC3C5)c3ccccc32)cc1)NO (centres undefined) , pIC50 read: 6.84
